Recorded inhibition at 1 µM for the following compounds
Target system: PCSK9 (Homo sapiens, UniProt Q8NBP7)
Sequence (Q8NBP7 153-692): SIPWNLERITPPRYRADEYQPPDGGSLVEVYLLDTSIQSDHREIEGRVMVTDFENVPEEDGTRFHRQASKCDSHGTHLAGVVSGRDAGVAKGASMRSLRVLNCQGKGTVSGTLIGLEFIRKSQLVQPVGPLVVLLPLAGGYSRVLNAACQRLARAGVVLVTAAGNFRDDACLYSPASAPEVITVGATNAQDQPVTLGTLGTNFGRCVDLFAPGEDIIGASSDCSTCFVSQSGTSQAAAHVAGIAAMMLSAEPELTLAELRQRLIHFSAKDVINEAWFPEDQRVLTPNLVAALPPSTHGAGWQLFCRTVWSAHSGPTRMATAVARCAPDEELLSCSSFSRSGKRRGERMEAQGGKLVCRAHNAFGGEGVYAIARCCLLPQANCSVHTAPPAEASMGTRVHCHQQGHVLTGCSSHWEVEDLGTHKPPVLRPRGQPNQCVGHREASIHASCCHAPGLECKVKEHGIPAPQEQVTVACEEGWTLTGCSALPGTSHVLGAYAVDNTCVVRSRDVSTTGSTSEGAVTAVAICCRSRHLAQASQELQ
Sequence (Q8NBP7 31-152 partner limits assumed): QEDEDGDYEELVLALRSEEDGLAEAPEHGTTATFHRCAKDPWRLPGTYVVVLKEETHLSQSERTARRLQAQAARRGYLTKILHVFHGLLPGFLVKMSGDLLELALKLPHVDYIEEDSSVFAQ
Test description: PCSK9-LDLR in vitro Binding Assay (ELISA)
Condition info: Concentration 1 μM
Procedure: The PCSK9-LDLR in vitro Binding Assay is a quantitative solid phase binding assay between PCSK9 and recombinant LDLR. Plates were pre-coated with a recombinant LDLR-AB domain, which binds PCSK9. […] The amount of bound PCSK9 is measured by binding it with biotinylated anti-His-tag monoclonal antibody, followed by binding with horseradish peroxidase conjugated streptavidin substrate. […] EC50 values were calculated by nonlinear regression analysis using graph pad prism software. […]
Give the value, in units of %, as a plain number.

Some compounds with recorded inhibition at 1 µM:
{"Compound": "Cc1nc(-c2ccc(C(F)(F)F)cc2)sc1CC1COC(C)(C(=O)N2CCOCC2)OC1 (centres unmarked)", "Endpoint label": "inhibition at 1 µM", "Unit of measure": "%", "Quantitative readout": 20}
{"Compound": "Cc1ccc(-c2nc(CC3COC(C)(C(=O)NO)OC3)c(C)o2)cc1 (centres unmarked)", "Endpoint label": "inhibition at 1 µM", "Unit of measure": "%", "Quantitative readout": 26}
{"Compound": "Cc1oc(-c2ccccc2)nc1CCC1COC(C)(C(=O)N2CCOCC2)OC1 (centres unmarked)", "Endpoint label": "inhibition at 1 µM", "Unit of measure": "%", "Quantitative readout": 20}
{"Compound": "Cc1ccc(-c2nc(CC3COC(C)(C(=O)N4CCOCC4)OC3)c(C)o2)cc1 (centres unmarked)", "Endpoint label": "inhibition at 1 µM", "Unit of measure": "%", "Quantitative readout": 11}
{"Compound": "Cc1nc(-c2ccc(C(F)(F)F)cc2)sc1CC1COC(C)(C(=O)NO)OC1 (centres unmarked)", "Endpoint label": "inhibition at 1 µM", "Unit of measure": "%", "Quantitative readout": 8}

Item Cc1oc(C(C)(C)C)nc1CC1COC(C)(C(=O)N2CCOCC2)OC1 (centres unmarked) ; assay system PCSK9 (Homo sapiens, UniProt Q8NBP7); inhibition at 1 µM reported as 25

Item Cc1oc(-c2ccccc2)nc1CC1COC(C)(C(=O)NCC(=O)N2CCOCC2)OC1 (centres unmarked) ; assay system PCSK9 (Homo sapiens, UniProt Q8NBP7); inhibition at 1 µM reported as 40
